Taken from patent US7435837B2.

- target_system: human 5-HT2C receptor (Homo sapiens, UniProt P28335)
- assay_details: 5-HT2C receptor-stimulated calcium mobilization (FLIPR) in CHO cells;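 note: Fluo-3-AM fluorescence read on FLIPR every 1 s, agonist added after 10 baseline reads, response taken as peak minus lowest raw fluorescence count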
- Assay type: cell-based
- condition_label: calcium mobilization, CHO cells stably expressing human 5-HT2C; read-out: 5-HT2C Function EC50
Please provide measured pEC50 for the entries that follow.
Give bare numbers, as −log10 of the molar value.

Previously resolved entries follow.
[
  {
    "compound": "Cc1cccc(C)c1-c1cc(Cl)cc2c1OC(CNC1CC1)C2 (racemic) [Example 267]",
    "pEC50": 6.14
  },
  {
    "compound": "COc1cc2c(c(-c3ccc(F)c(Cl)c3)c1)OC(CN)C2 (racemic) [Example 373]",
    "pEC50": 6.07
  },
  {
    "compound": "NCC1Cc2cccc(-c3ccc(Cl)cc3Cl)c2O1 (single isomer, unassigned; (+)) [Example 150]",
    "pEC50": 7.13
  }
]

Report pEC50 for each item below.
1. CNCC1Cc2cccc(-c3c(Cl)cccc3Cl)c2O1 (racemic) [Example 433]
2. CC(C)c1cccc2c1OC(CN)C2 (single isomer, unassigned; (+)) [Example 20]

1. 9.00
2. 6.75

Fill in pEC50 for each of the 3 compounds listed.
1. NCC1Cc2cc(Cl)cc(-c3ccccc3)c2O1 (single isomer, unassigned; (+)) [Example 85]
2. CC(C)(C)c1cccc2c1OC(CN)C2 (single isomer, unassigned; (-)) [Example 25]
3. COc1cc2c(c(-c3cccc(F)c3F)c1)OC(CN)C2 (racemic) [Example 361]

6.25
8.00
7.14

====

- target_system: human 5-hydroxytryptamine-2C (h5-HT2C) receptor (Homo sapiens, UniProt P28335)
- Construct: expressed in transfected cells; host or cells: CHO (Chinese Hamster Ovary) cells; membranes
- assay_details: [125I]DOI binding to membranes of CHO cells expressing the human 5-HT2C receptor
- condition_label: 5-HT2C Affinity Ki (nM), [125I]DOI radioligand, CHO cell membranes, room temperature 60 min
measurement_type: Ki (nM)
Give bare numbers, in nM.

For the compound COc1cc2c(c(-c3ccccc3Cl)c1)OC(CN)C2 (racemic) [Example 357] , what Ki is on record? 18

====

- target_system: human 5-hydroxytryptamine-2C (h5-HT2C) receptor (Homo sapiens, UniProt P28335)
- Construct: expressed in transfected cells; host or cells: CHO (Chinese Hamster Ovary) cells; membranes
- assay_details: [125I]DOI binding to membranes of CHO cells expressing the human 5-HT2C receptor
- condition_label: [125I]DOI radioligand, CHO cell membranes, room temperature 60 min; read-out: 5-HT2C Affinity Ki
Checkbox rule: Ki lower than 10 nM = criterion met; Ki not lower than 10 nM = criterion not met.

Solved cases below.
[
  {
    "compound": "Cc1cc2c(c(-c3c(Cl)cccc3Cl)c1)OC(CN)C2 (single isomer, unassigned; (+)) [Example 304]",
    "group_label": "criterion met"
  },
  {
    "compound": "NCC1Cc2cccc(Nc3cccc(C(F)(F)F)c3)c2O1 (racemic) [Example 184]",
    "group_label": "criterion not met"
  },
  {
    "compound": "Cc1cc2c(c(-c3cccc(Cl)c3)c1)OC(CN)C2 (racemic) [Example 288]",
    "group_label": "criterion met"
  },
  {
    "compound": "Cc1ccccc1-c1cccc2c1OC(CN)C2 (single isomer, unassigned; (+)) [Example 48]",
    "group_label": "criterion met"
  },
  {
    "compound": "CNCC1Cc2cc(-c3ccc(C(F)(F)F)cc3)cc(F)c2O1 (racemic) [Example 541]",
    "group_label": "criterion not met"
  }
]

Ki strictly < 10 nM for this compound? Cc1cc(Cl)ccc1-c1cc(F)cc2c1O[C@@H](CN)C2 [Example 549] criterion met

I wonder whether COc1ccc(C)cc1-c1cc(F)cc2c1OC(CN)C2 (racemic) [Example 225] has Ki below 10 nM. Can you tell? criterion met

hey, is Ki for CNCC1Cc2cc(-c3ccc(OC)cc3)cc(F)c2O1 (racemic) [Example 542] lower than 10 nM or not? criterion not met

I wonder whether CNCC1Cc2cc(C)cc(-c3cc(Cl)ccc3Cl)c2O1 (single isomer, unassigned; (-)) [Example 488] has Ki below 10 nM. Can you tell? criterion met

Quick check: does NCC1Cc2cc(-c3ccccc3)cc(-c3ccc(F)cc3F)c2O1 (racemic) [Example 354] have Ki under 10 nM? criterion not met

Problem: For the compound NCC1Cc2cc(Cl)cc(-c3ccsc3)c2O1 (racemic) [Example 90] , is Ki under 10 nM? criterion met

Determine if NCC1Cc2cc(Cl)cc(-c3ccc(F)cc3F)c2O1 (racemic) [Example 250] shows Ki strictly lower than 10 nM. criterion met

Please indicate whether the reported Ki of NCC1Cc2cccc(-c3cccc(C(F)(F)F)c3)c2O1 (single isomer, unassigned; (+)) [Example 136] is strictly below 10 nM. criterion not met

====

- target_system: human 5-HT2C receptor (Homo sapiens, UniProt P28335)
- Sequence (P28335 33-458): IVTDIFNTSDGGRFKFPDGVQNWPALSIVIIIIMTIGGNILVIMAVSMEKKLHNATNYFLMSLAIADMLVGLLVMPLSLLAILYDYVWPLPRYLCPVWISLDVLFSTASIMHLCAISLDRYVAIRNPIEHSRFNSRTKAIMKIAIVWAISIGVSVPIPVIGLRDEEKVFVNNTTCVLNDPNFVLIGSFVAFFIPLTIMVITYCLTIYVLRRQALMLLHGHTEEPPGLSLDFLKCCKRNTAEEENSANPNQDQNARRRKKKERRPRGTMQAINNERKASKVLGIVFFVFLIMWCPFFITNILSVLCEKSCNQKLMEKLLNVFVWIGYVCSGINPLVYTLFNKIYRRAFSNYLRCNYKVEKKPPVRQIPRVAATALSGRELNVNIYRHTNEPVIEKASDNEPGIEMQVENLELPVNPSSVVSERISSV
- assay_details: 5-HT2C receptor-stimulated calcium mobilization (FLIPR) in CHO cells
- Assay type: cell-based
- condition_label: CHO, percentage of the response observed with a maximally effective concentration of 5-HT; read-out: 5-HT2C Function Emax (%)
Threshold rule: Emax greater than or equal to 80% is true (1); below that, false (0).

[
  {
    "compound": "CNCC1Cc2cc(F)cc(-c3c(C)cccc3C)c2O1 (single isomer, unassigned; (+)) [Example 558]",
    "group_label": "false (0)"
  },
  {
    "compound": "CNCC1Cc2cc(F)cc(-c3cc(F)ccc3F)c2O1 (racemic)",
    "group_label": "false (0)"
  },
  {
    "compound": "Fc1cc2c(c(-c3c(Cl)cccc3Cl)c1)OC(CN1CCOCC1)C2 (racemic)",
    "group_label": "false (0)"
  }
]

// inclusive: Emax at least 80%? input: NCC1Cc2c(F)c(F)cc(-c3ccccc3)c2O1 (racemic) false (0)

Record Cc1cc(Cl)ccc1-c1cccc2c1OC(CN)C2 (racemic) [Example 167] ; criterion: Emax no lower than 80%. Met? true (1)

Decide: is the reported value of Emax for CNCC1Cc2cc(Cl)cc(-c3cccc(OC)c3OC)c2O1 (racemic) equal to or greater than 80%? false (0)

Identify whether the reported Emax of the following compound is 80% or greater: NCC1Cc2cccc(-c3ccccc3)c2O1 (single isomer, unassigned; (-)) [Example 38] true (1)

Decide: is the reported value of Emax for Cc1cc2c(c(-c3ccccc3)c1)OC(CN)C2 (racemic) equal to or greater than 80%? true (1)

Item NCC1Cc2cccc(-c3ccccc3Cl)c2O1 (racemic) [Example 60] with Emax of 80% or above? true (1)

Entry CNCC1Cc2cccc(-c3ccc(OC)cc3OC)c2O1 (racemic) : is its Emax no less than 80%? true (1)

hey, is Emax for this one >= 80%? Cc1ccccc1-c1cc(C2CCCC2)cc2c1OC(CN)C2 (racemic) true (1)

Decide: is the reported value of Emax for CC(C)(C)c1cc(Cl)cc2c1OC(CN)C2 (single isomer, unassigned; (-)) [Example 28] equal to or greater than 80%? true (1)

====

Counter-ions that a name gives are not always drawn.
Would you kindly list melting point for each of these compounds?

See these solved cases before continuing.
[
  {
    "compound": "NCC1Cc2cccc(-c3ccc(F)cc3)c2O1 (racemic) (as salt: hydrochloride) [Example 73]",
    "melting point": "237 to 240 °C"
  },
  {
    "compound": "NCC1Cc2cccc(-c3cccc(C(F)(F)F)c3)c2O1 (racemic) (as salt: hydrochloride) [Example 69]",
    "melting point": "172 to 174 °C"
  },
  {
    "compound": "NCC1Cc2c(cccc2-c2ccccc2C(F)(F)F)O1 (racemic) (as salt: hydrochloride) [Example 122]",
    "melting point": "213 to 215 °C"
  }
]

Give melting point for all compounds that follow.
1. NCC1Cc2cccc(-c3ccc(Cl)cc3Cl)c2O1 (racemic) (as salt: hydrochloride) [Example 83]
2. NCC1Cc2cccc(-c3ccc(Cl)cc3)c2O1 (single isomer, unassigned; (-)) (as salt: hydrobromid) [Example 78]
3. NCC1Cc2cccc(-c3ccsc3)c2O1 (single isomer, unassigned; (+)) (as salt: hydrobromid) [Example 45]
4. CC(C)(C)c1cc(Cl)cc2c1OC(CN)C2 (single isomer, unassigned; (-)) (as salt: hydrobromid) [Example 28]

1: 198 to 200 °C; 2: 233 to 235 °C; 3: 234 to 236 °C; 4: 219 to 222 °C
